Recorded IC50 for the following compounds
Tested on: MDA-MB-231 human breast cancer cells
Assay explanation: Cell proliferation assay (CellTiter-Glo, 72 hours treatment)
Format: cell-based
Condition notes: Homo sapiens; MDA-MB-231 cells, 72 hours at 37° C., CellTiter-Glo; read-out: MDA-MB-231 cell proliferation assay (IC50)

# annotated cases, reported IC50 shown
MDA-MB-231 human breast cancer cells assay, compound COc1cncc2c1[C@]1(O)[C@@H](CN(C)C)[C@H](CO)[C@@H](c3ccccc3)[C@]1(c1ccc(Br)cc1)O2 (racemic) [205F] , recorded IC50 = < 100 nM

MDA-MB-231 human breast cancer cells assay, compound CN(C)C(=O)[C@@H]1[C@@H](c2ccccc2)[C@]2(c3ccc(C#N)cc3)Oc3cc(Cl)cnc3[C@]2(O)[C@H]1C#N (racemic) [51F] , recorded IC50 = 100 to 1000 nM

MDA-MB-231 human breast cancer cells assay, compound COc1nc(C#N)cc2c1[C@]1(O)[C@H](O)[C@H](CN3CCC(F)CC3)[C@@H](c3ccccc3)[C@]1(c1ccc(Br)cc1)O2 (racemic) [156Fa] , recorded IC50 = < 100 nM

MDA-MB-231 human breast cancer cells assay, compound C=C1C[C@@H](c2ccccc2)[C@]2(c3ccc(Br)cc3)Oc3cc(Cl)cnc3[C@]12O (racemic) [34F] , recorded IC50 = > 1000 nM

MDA-MB-231 human breast cancer cells assay, compound COc1cncc2c1[C@]1(O)[C@H](O)[C@H](CN3[C@@H]4CC[C@H]3COC4)[C@@H](c3ccccc3)[C@]1(c1ccc(C#N)cc1)O2 (single isomer, unassigned) [265F] , recorded IC50 = 100 to 1000 nM

Please find the next compound below.
MDA-MB-231 human breast cancer cells assay, compound COc1nc(Cl)cc2c1[C@]1(O)[C@H](O)[C@H](CN(C)C)[C@@H](c3ccccc3)[C@]1(c1ccc(Br)cc1)O2 (racemic) [138F] , recorded IC50 = < 100 nM
